molecular target: Estrogen receptor (Homo sapiens); experiment: qHTS assay to identify small molecule agonists of the estrogen receptor alpha (ER-alpha) signaling pathway using the BG1 cell line (AID 743079); conditions: BG1Luc4E2 cells, ERE-luciferase agonist, 22 h; further: nearly all actives have a fitted effect of over 20% in size
Results filed as inconclusive are left out. Activity calls are given as the source filed them. The call rests on the fitted dose curve; in most records, active means well fitted activation curve with a large enough effect in the repeat runs; inconclusive means weak or mixed curves, or effect the other way; inactive means no such curve, though single readings can be large or run the other way.
# valid calls are label 1 for active, label 0 for inactive; nothing else

Any idea what this test logged for CNC(=O)CSP(=O)(OC)OC ?
label 0

Any idea what this test logged for CCOC(=O)Cc1ccccc1 ?
label 0

Any idea what this test logged for CCO/N=C(\CC)C1=C(O)CC(c2c(C)cc(C)cc2C)CC1=O (centres undefined) ?
label 0

Any idea what this test logged for O=S(=O)(O)F ?
label 0

Any idea what this test logged for O=P(Cl)(Cl)Cl ?
label 0

Any idea what this test logged for COC(=O)C(C)N(C(=O)c1ccco1)c1c(C)cccc1C (centres undefined) ?
label 0

Any idea what this test logged for CCC(C)Nc1c([N+](=O)[O-])cc(C(C)(C)C)cc1[N+](=O)[O-] (centres undefined) ?
label 1

Any idea what this test logged for CCCCCCCCCCCCCCn1cc[n+](C)c1 ?
label 0

Any idea what this test logged for COc1cnc(OC)n2nc(NS(=O)(=O)c3c(OCC(F)F)cccc3C(F)(F)F)nc12 ?
label 0

Any idea what this test logged for Cc1cnc2c(C(=O)O)c(Cl)ccc2c1 ?
label 0

Next:
Any idea what this test logged for COP(=S)(OC)Oc1ccc([N+](=O)[O-])c(C)c1 ?
label 0

Any idea what this test logged for NC1CCC(CC2CCC(N)CC2)CC1 (centres undefined) ?
label 0

Any idea what this test logged for CNC(=O)Oc1cc(C)cc(C(C)C)c1 ?
label 0
